- assay system: AChE in SH-SY5Y cells (Homo sapiens, UniProt P22303)
- Sequence (P22303 32-614): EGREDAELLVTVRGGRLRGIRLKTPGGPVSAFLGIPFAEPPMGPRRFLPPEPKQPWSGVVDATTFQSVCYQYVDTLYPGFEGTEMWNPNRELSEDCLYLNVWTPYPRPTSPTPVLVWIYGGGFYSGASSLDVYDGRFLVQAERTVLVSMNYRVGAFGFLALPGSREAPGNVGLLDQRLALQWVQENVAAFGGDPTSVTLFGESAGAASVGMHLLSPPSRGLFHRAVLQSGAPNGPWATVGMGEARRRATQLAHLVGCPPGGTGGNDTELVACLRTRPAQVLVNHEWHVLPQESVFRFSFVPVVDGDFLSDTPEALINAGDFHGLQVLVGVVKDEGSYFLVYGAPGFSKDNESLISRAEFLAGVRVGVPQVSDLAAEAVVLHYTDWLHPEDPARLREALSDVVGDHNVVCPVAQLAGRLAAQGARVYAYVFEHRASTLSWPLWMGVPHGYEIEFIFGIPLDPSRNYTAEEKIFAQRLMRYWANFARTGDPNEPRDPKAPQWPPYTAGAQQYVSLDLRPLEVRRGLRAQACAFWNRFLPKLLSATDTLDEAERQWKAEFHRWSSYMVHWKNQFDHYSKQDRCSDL
- run description: cell-based
Where a name gives a salt, the structure may show the parent alone.
quantity kind: CC-v2 (curve classes)
// return just the number, without any unit appended

I'd like to know its CC-v2 (curve classes). The compound in question is CCCSP(=O)(OCC)Oc1ccc(Br)cc1Cl (stereo not drawn) [Profenofos]
-1.1

I'd like to know its CC-v2 (curve classes). The compound in question is Cc1nc(N(C)C)nc(OC(=O)N(C)C)c1C [Pirimicarb]
-1.1

I'd like to know its CC-v2 (curve classes). The compound in question is CCc1ccc(C(=O)C(C)CN2CCCCC2)cc1.Cl (stereo not drawn) [Eperisone hydrochloride, reference compound]
-2.1

I'd like to know its CC-v2 (curve classes). The compound in question is CNC(=O)Oc1cc(C)cc(C(C)C)c1 [Promecarb]
-1.1

I'd like to know its CC-v2 (curve classes). The compound in question is CNC(=O)Oc1ccccc1C(C)C [Isoprocarb]
-1.1

I'd like to know its CC-v2 (curve classes). The compound in question is O=C(O)/C=C\C(=O)O.O=C(O)/C=C\C(=O)O.c1cc(CN2CCCCC2)cc(OCCCNc2nc3ccccc3s2)c1 [Zolantidine dimaleate]
-2.1

I'd like to know its CC-v2 (curve classes). The compound in question is CCCCOc1ccc(C(=O)CCN2CCCCC2)cc1 [Dyclonine hydrochloride]
-2.1

I'd like to know its CC-v2 (curve classes). The compound in question is CNC(=O)O/N=C(\C)C(C)S(C)(=O)=O (stereo not drawn) [Butoxycarboxim]
-2.1

I'd like to know its CC-v2 (curve classes). The compound in question is CC[n+]1c(-c2ccccc2)c2cc(N)ccc2c2ccc(N)cc21 [Ethidium bromide]
-2.1

====

- assay system: recombinant human AChE (Homo sapiens, UniProt P22303)
- Sequence (P22303 32-614): as above
- run description: biochemical
- condition info: potency (IC50), Enzyme with microsomes
Where a name gives a salt, the structure may show the parent alone.
quantity kind: IC50

I'd like to know its IC50. The compound in question is O=c1[nH]c2ccc([S+]([O-])CCN3CCC(Cc4ccc(F)cc4)CC3)cc2o1 (stereo not drawn) [Besonprodil, reference compound]
15.8 µM

I'd like to know its IC50. The compound in question is CC/N=c1\cc2oc3cc(NCC)c(C)cc3c(-c3ccccc3C(=O)OCC)c-2cc1C
41.3 µM

I'd like to know its IC50. The compound in question is CN1CCc2cc(Cl)c(O)cc2[C@H]2c3ccccc3CC[C@@H]21 [Ecopipam, reference compound]
27.3 µM

I'd like to know its IC50. The compound in question is CCN1CCCC1CNC(=O)c1cc(S(=O)(=O)CC)c(N)cc1OC (stereo not drawn) [Amisulpride, reference compound]
21.8 µM

I'd like to know its IC50. The compound in question is CCOP(=S)(OCC)SC(CCl)N1C(=O)c2ccccc2C1=O (stereo not drawn)
2.69 µM

I'd like to know its IC50. The compound in question is CCOP(=S)(OCC)OP(=S)(OCC)OCC
7.89 µM

I'd like to know its IC50. The compound in question is CCN(C(=O)c1cc(C)cc(OC[C@H](C)Nc2ccncc2)c1)C(C)C.Cc1ccc(S(=O)(=O)O)cc1 [GW473178E methyl benzene sulfonic acid]
18.9 µM

I'd like to know its IC50. The compound in question is CNC(=O)Oc1ccccc1OC(C)C
1.76 µM

I'd like to know its IC50. The compound in question is CCOP(=S)(OCC)SCn1c(=O)oc2cc(Cl)ccc21
2.91 µM

I'd like to know its IC50. The compound in question is Cl.Clc1cc(Cl)c2c(c1)N=C1CCCCCN1C2
1.79 µM

I'd like to know its IC50. The compound in question is CN1C[C@H](CNC(=O)OCc2ccccc2)C[C@@H]2c3cccc4c3c(cn4C)C[C@H]21 [Metergoline, reference compound]
21.7 µM

I'd like to know its IC50. The compound in question is CS/C(C)=N\OC(=O)N(C)SN(C)C(=O)O/N=C(\C)SC
5.48 µM

I'd like to know its IC50. The compound in question is C=CC[N+]1([C@H]2C[C@H]3[C@@H]4CC[C@H]5C[C@H](OC(C)=O)[C@@H](N6CCCCC6)C[C@]5(C)[C@H]4CC[C@]3(C)[C@H]2OC(=O)CC)CCCCC1 [Rapacuronium bromide, reference compound]
26.3 µM

I'd like to know its IC50. The compound in question is CCOP(=S)(OCC)O/N=C(\C#N)c1ccccc1
0.67 µM

I'd like to know its IC50. The compound in question is CCCCOc1ccc(C(=O)CCN2CCCCC2)cc1 [Dyclonine HCl, reference compound]
31 µM

I'd like to know its IC50. The compound in question is O=C(O)/C=C/C(=O)O.O=C1c2ccccc2C(=O)N1CCc1noc(-c2ccc(CN3CCCCCC3)s2)n1
24.7 µM

I'd like to know its IC50. The compound in question is CCOP(=S)(OCC)Oc1cc(C)nc(C(C)C)n1
22.6 µM

I'd like to know its IC50. The compound in question is CCOP(=S)(Oc1cnc(C(C)(C)C)nc1)OC(C)C (stereo not drawn)
4.29 µM

I'd like to know its IC50. The compound in question is CC(=O)Oc1cc(C(C)C)c(OCCN(C)C)cc1C [Moxisylyte hydrochloride, reference compound]
19.3 µM

I'd like to know its IC50. The compound in question is CCOP(=S)(OCC)SCn1nnc2ccccc2c1=O
2.14 µM

I'd like to know its IC50. The compound in question is Cc1nc(N(C)C)nc(OC(=O)N(C)C)c1C
8.53 µM

I'd like to know its IC50. The compound in question is CCOP(=S)(OCC)Oc1ccc([N+](=O)[O-])cc1
1.27 µM

I'd like to know its IC50. The compound in question is COP(N)(=S)Oc1ccccc1C(=O)OC(C)C (stereo not drawn)
8.21 µM

I'd like to know its IC50. The compound in question is COP(=O)(OC)SCn1c(=O)oc2cc(Cl)cnc21
6.34 µM

I'd like to know its IC50. The compound in question is CCOC(=O)CC(SP(=O)(OC)OC)C(=O)OCC (stereo not drawn)
4.43 µM

I'd like to know its IC50. The compound in question is Cc1cc(OC(=O)N(C)C)nn1C(=O)N(C)C
9.97 µM

I'd like to know its IC50. The compound in question is COP(=S)(Oc1cc(Cl)c(Br)cc1Cl)c1ccccc1 (stereo not drawn)
2.31 µM

I'd like to know its IC50. The compound in question is CNC(=O)Oc1cccc2c1OC(C)(C)O2
0.88 µM

I'd like to know its IC50. The compound in question is CCOP(=S)(OCC)SCSC(C)(C)C
4.27 µM

I'd like to know its IC50. The compound in question is Cc1c(Cl)c(=O)oc2cc(OP(=O)(OCCCl)OCCCl)ccc12
2.81 µM

I'd like to know its IC50. The compound in question is CCOP(=S)(OCC)SCSP(=S)(OCC)OCC
11.1 µM

I'd like to know its IC50. The compound in question is CCOC(=O)CCN(SN(C)C(=O)Oc1cccc2c1OC(C)(C)C2)C(C)C
1.4 µM

I'd like to know its IC50. The compound in question is CCOP(=O)(OCC)Oc1cc(C)nc(C(C)C)n1
3.69 µM
